- Test system: Pseudomonas aeruginosa
- test_details: Antibacterial activity against Pseudomonas aeruginosa by agar dilution method
- Format: functional
measurement_kind: MIC50 (µg/mL)
One number for each entry, in µg/mL.

Take a look at these entries with their results.
- compound: "Cl.N[C@@H]1C[C@H](N)CN(c2nc(Nc3ccc(NC(=O)c4ccc(Cl)cc4)c(O)c3)nc(N3C[C@H](N)C[C@H](N)C3)n2)C1"
  endpoint_unit: "µg/mL"
  MIC50: 4
- compound: "CC(C)(O/N=C(\\C(=O)N[C@@H]1C(=O)N2C(C(=O)[O-])=C(C[n+]3ccccc3)CS[C@H]12)c1csc(N)n1)C(=O)O"
  endpoint_unit: "µg/mL"
  MIC50: 2
- compound: "NCC[C@H](O)C(=O)N[C@@H]1C[C@H](N)[C@@H](O[C@H]2O[C@H](CN)[C@@H](O)[C@H](O)[C@H]2O)[C@H](O)[C@H]1O[C@H]1O[C@H](CO)[C@@H](O)[C@H](N)[C@H]1O"
  endpoint_unit: "µg/mL"
  MIC50: 4

// for each compound below, give its MIC50
1. CCN1CCN(C(=O)N[C@@H](C(=O)N[C@@H]2C(=O)N3[C@@H]2SC(C)(C)[C@@H]3C(=O)O)c2ccccc2)C(=O)C1=O
2. C[C@@H](O)[C@H]1C(=O)N2C(C(=O)O)=C(SCCNC=N)C[C@H]12 [IMIPENEM ANHYDROUS]
3. CN(C)[C@@H]1C(O)=C(C(N)=O)C(=O)[C@@]2(O)C(O)=C3C(=O)c4c(O)cccc4[C@@](C)(O)[C@H]3C[C@@H]12

**A:**
1. 8
2. 2
3. 32
